# studyTarget: Tyrosyl-tRNA synthetase, putative (Trypanosoma cruzi (strain CL Brener)) (UniProt Q4DSP6)
# Sequence (Q4DSP6 as listed by the source): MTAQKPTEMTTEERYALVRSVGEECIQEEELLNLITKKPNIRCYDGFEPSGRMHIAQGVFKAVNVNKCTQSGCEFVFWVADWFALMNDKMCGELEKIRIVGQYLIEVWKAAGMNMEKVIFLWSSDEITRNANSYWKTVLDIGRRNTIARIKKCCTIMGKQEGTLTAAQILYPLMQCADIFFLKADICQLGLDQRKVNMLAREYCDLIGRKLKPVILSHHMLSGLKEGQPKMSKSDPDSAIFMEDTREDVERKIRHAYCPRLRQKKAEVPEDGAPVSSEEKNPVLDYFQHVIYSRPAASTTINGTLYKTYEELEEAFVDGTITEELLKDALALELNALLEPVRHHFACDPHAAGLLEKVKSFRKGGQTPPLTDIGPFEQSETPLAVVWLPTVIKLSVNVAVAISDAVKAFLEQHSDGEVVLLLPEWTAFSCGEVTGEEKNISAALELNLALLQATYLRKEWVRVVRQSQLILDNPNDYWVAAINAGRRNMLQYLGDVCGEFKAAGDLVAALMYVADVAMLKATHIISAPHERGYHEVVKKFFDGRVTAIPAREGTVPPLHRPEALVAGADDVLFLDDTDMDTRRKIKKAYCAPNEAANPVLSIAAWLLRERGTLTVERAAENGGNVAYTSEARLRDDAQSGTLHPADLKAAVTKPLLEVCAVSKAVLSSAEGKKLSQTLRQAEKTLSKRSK
# testProtocol: Trypanosoma cruzi tyrosyl tRNA synthetase (TcYRS) SOP
# Assay type: functional
# Design: scale not given: direction of the effect not stated beside the values
# measurementSetup: 30 µM
Percent Effect below 10% gives not met; Percent Effect at or above it gives met.

Below, 3 molecules whose answers are already recorded.
Cc1cc(C(=O)NCc2ccnc(N3CCN(C)CC3)c2)c(C)s1    met
CN(Cc1ccsc1)C(=O)Nc1ccc(S(=O)(=O)N(C)C)cc1    met
c1cnnc(N2CCCC(NCc3cn4ccccc4n3)C2)c1 (configuration not stated)    met

(Q) Reported Percent Effect at or above 10%? COC(=O)COc1nc(CC(C)C)c2c(c1C#N)CCCC2
(A) not met

(Q) Record Cc1cccc(CCC(=O)N2CCOCC2c2c(C)n[nH]c2C)c1 (configuration not stated) ; criterion: Percent Effect no lower than 10%. Met?
(A) not met

(Q) Threshold query (Percent Effect >= 10%) on O=C(NCCCn1cncn1)N1CCCC(N2CCCC2)C1 (configuration not stated)
(A) met

(Q) Kindly determine if Percent Effect recorded for CC(c1cccc(S(N)(=O)=O)c1)N(C)CCc1ccccc1 (configuration not stated) is above or exactly 10%.
(A) met

(Q) Dear colleague, could you confirm whether Cc1cc(N2CCN(Cc3ccccc3)CC(O)C2)cc(C)n1 (configuration not stated) has Percent Effect at or above 10%?
(A) not met

(Q) Can COCCOc1ncccc1C(=O)Nc1ccc(-n2cncn2)c(F)c1 be said to have Percent Effect at or above 10%?
(A) met

(Q) Determine whether measured Percent Effect meets or exceeds 10% for CC(NC(=O)CSCC#N)c1ccccc1 (configuration not stated)
(A) met

(Q) Quick check: does O=C(NCCOc1ncc(Cl)cc1Cl)c1ccncc1F have Percent Effect greater than or equal to 10%?
(A) not met

(Q) Does CCn1cnnc1C1CCN(C(=O)C(OC)c2ccccc2)CC1 (configuration not stated) have a reported Percent Effect of at least 10%?
(A) met

(Q) Exam item: decide whether the reported Percent Effect for O=C(c1cc(C2CC2)[nH]n1)N1CCN(Cc2ccsc2)CC1 is at least 10%.
(A) met

(Q) Threshold query (Percent Effect >= 10%) on O=C(Nc1nnc(C2CC2)s1)NC1CCN(Cc2ccccc2)C1 (configuration not stated)
(A) met

(Q) Determine whether measured Percent Effect meets or exceeds 10% for CCN(C)S(=O)(=O)N(CC)Cc1ccc2c(c1)OCO2
(A) met

(Q) Confirm if Percent Effect reported for the molecule O=C1CCCc2nccc(-c3ccccc3)c21 is 10% or above.
(A) not met

(Q) # check: Percent Effect of O=C(O)c1nnn(-c2ccc(OC(F)(F)F)cc2)c1-c1ccncc1 is greater than or equal to 10%
(A) met

(Q) Decide: Percent Effect of COCC(O)CNC(=O)c1cnc(-c2ccccc2)nc1O (configuration not stated) >= 10%?
(A) met

(Q) Form field: Percent Effect at least 10%? Entry: CCc1cnc(C)nc1NCCN1CCCCCC1
(A) met

(Q) Confirm if Percent Effect reported for the molecule CCc1nc(CN2CCCN(C(=O)COCC3CC3)CC2)cs1 is 10% or above.
(A) met

(Q) I'd appreciate it if you could say whether COc1ccc(CNC(=O)c2nn(C)c3c2CS(=O)(=O)CC3)cc1OC has Percent Effect at least equal to 10%.
(A) met

(Q) Does Cc1nc(C2CCCN2CC(=O)NCCc2ccsc2)no1 (configuration not stated) have a reported Percent Effect of at least 10%?
(A) met

(Q) I'd appreciate it if you could say whether COCc1nc(N(C)C)ncc1C(=O)NC(C)C has Percent Effect at least equal to 10%.
(A) not met

(Q) # check: Percent Effect of Cc1ccc(N2CC[C@H]3O[C@@H](C(=O)NCc4ccco4)CC[C@H]32)nn1 is greater than or equal to 10%
(A) met

(Q) Given the entry Cc1cc(C)n(C2CN(CC(=O)N(C)Cc3ccc(C)o3)C2)n1 , answer whether its Percent Effect meets or surpasses 10%.
(A) met
